assay: Plasma concentration in C57 mouse at 10 mg/kg, po after 20 hrs by LC/MS analysis; type: ADME, organism-based; set-up: dose 10 mg/kg, route oral
RESULT TYPE: concentration at 20 h (nM)
Numbers only, in nM.

Query: Given O=C(NC(c1ccc(Cl)cc1)c1ccnc(F)c1)[C@@H]1CC[C@@H](N2CCOCC2)C[C@H]1c1ccc(Br)cc1 (stereo partly specified) , state its recorded concentration at 20 h.
Reply: 163

----------
experiment: in vivo; details: C57, mouse, plasma, po, 30 mg/kg
RESULT TYPE: concentration at 20 h (nM)
Give bare numbers, in nM.

In [3]: df
Out[3]:
                                   compound            result_type  experimental_value
0  O=C(NC(c1ccc(Cl)cc1)c1ccnc(F)c1)[C@@H]1CC[C@@H](N2CCOCC2)C[C@H]1c1ccc(Br)cc1 (stereo partly drawn)  concentration at 20 h                 390

Batch of 2 compounds: report concentration at 20 h for each.
1. O=C(NC(c1ccc(Cl)cc1)c1ccc(F)cn1)[C@@H]1CC[C@@H](N2CCOCC2)C[C@H]1c1ccc(Br)cc1 (stereo partly drawn)
2. O=C(NC(c1ccc(F)cc1)c1ccc(F)cc1)[C@@H]1CC[C@@H](N2CCOCC2)C[C@H]1c1ccc(Br)cc1

Reply:
[1840, 1020]

----------
Would you kindly list half-life for each of these compounds?
experiment: in vivo; details: mouse

Some compounds with known half-life results, for comparison:
In [3]: df
Out[3]:
                                   compound  experimental_value
0  O=C(NC(c1ccc(F)cc1)c1ccc(F)cc1)[C@@H]1CC[C@@H](N2CCOCC2)C[C@H]1c1ccc(Br)cc1               7.6 h
1  O=C(NC(c1ccc(Cl)cc1)c1ccc(F)cn1)[C@@H]1CC[C@@H](N2CCOCC2)C[C@H]1c1ccc(Br)cc1 (stereo partly drawn)               4.9 h
2  O=C(NC(c1ccncc1)c1ccc(Cl)cc1)[C@@H]1CC[C@@H](N2CCOCC2)C[C@H]1c1ccc(Br)cc1 (stereo partly drawn)               1.4 h
3  O=C(NC(c1ccc(Cl)cc1)c1ccncc1Cl)[C@@H]1CC[C@@H](N2CCOCC2)C[C@H]1c1ccc(Br)cc1 (stereo partly drawn)               1.5 h
4  O=C(NC(c1ccncc1)c1ccc(F)cc1)[C@@H]1CC[C@@H](N2CCOCC2)C[C@H]1c1ccc(Br)cc1 (stereo partly drawn)                 2 h

Hi team, please reply with half-life for each item in this list.
1. O=C(NC(c1ccc(Cl)cc1)c1ccnc(F)c1)[C@@H]1CC[C@@H](N2CCOCC2)C[C@H]1c1ccc(Br)cc1 (stereo partly drawn)
2. O=C(NC(c1ccccc1)c1ccccc1)[C@@H]1CC[C@@H](N2CCOCC2)C[C@H]1c1ccc(Br)cc1
3. O=C(NC(c1ccc(Cl)cc1)c1cnccn1)[C@@H]1CC[C@@H](N2CCOCC2)C[C@H]1c1ccc(Br)cc1 (stereo partly drawn)

Reply:
["2.9 h", "3.1 h", "1.2 h"]

----------
experiment: in vivo; conditions: mouse, po
I'd be grateful if you could share measured bioavailability for these entries.
Answers are plain numbers, in %.

As a guide, the following entries are already answered.
>>> df
                                   compound  experimental_value
0  O=C(NC(c1ccncc1)c1ccc(F)cc1)[C@@H]1CC[C@@H](N2CCOCC2)C[C@H]1c1ccc(Br)cc1 (some centres undefined)                 6.9
1  O=C(NC(c1ccccc1)c1ccccc1)[C@@H]1CC[C@@H](N2CCOCC2)C[C@H]1c1ccc(Br)cc1                  36
2  O=C(NC(c1ccncc1)c1ccc(Cl)cc1)[C@@H]1CC[C@@H](N2CCOCC2)C[C@H]1c1ccc(Br)cc1 (some centres undefined)                 8.9

Now examine the next entry.
Query: I would be grateful if you could share the reported bioavailability for `O=C(NC(c1ccc(F)cc1)c1ccc(F)cc1)[C@@H]1CC[C@@H](N2CCOCC2)C[C@H]1c1ccc(Br)cc1` .
Reply: 77
